# experiment: AP1 Signaling Pathway (AID 357);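 further: ME-180 reporter cells stimulated with EGF at its EC50 level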
# condition: ME-180 (cervical carcinoma) AP-1-bla reporter, EGF-induced, beta-lactamase ratio, 5 h; at 17.2 µM (top of the series)
Inconclusive results are not listed. The source made the active and inactive calls. The call rests on the fitted dose curve; in most records, active means well fitted curve in either direction with a large enough effect (not every such curve was filed as active); inconclusive means small, poorly fitted or top-dose-only effect, or another doubt; inactive means flat fitted curve, though single readings scatter.
Response enum: active, inactive

compoundStructureString	class
CCN1CCN(c2cc3c(cc2F)c(=O)c(C(=O)O)cn3C2CC2)CC1	inactive

Challenge: Hi, do you know how `CN1CCN(C(c2ccccc2)c2ccccc2)CC1` came out in this test?
Response given: inactive

Challenge: Hi, do you know how `C[N+]1(CCCCC[N+]2(C)CCCC2)CCCC1` came out in this test?
Response given: inactive

Challenge: Hi, do you know how `CC(=O)OCC(=O)[C@@]12OC(C)(C)O[C@@H]1C[C@H]1[C@@H]3C[C@H](F)C4=CC(=O)C=C[C@]4(C)[C@@]3(F)[C@@H](O)C[C@@]12C` came out in this test?
Response given: inactive

Challenge: Hi, do you know how `CCOc1ccc(Cc2nccc3cc(OCC)c(OCC)cc23)cc1OCC` came out in this test?
Response given: inactive

###

# Tested on: CP238
# experiment: qHTS profiling for inhibitors of Plasmodium falciparum proliferation (AID 504749); further: nearly all actives have a fitted effect of over 60% in size
# condition: P. falciparum in erythrocytes, SYBR Green DNA, 72 h; series mostly up to 28.7 µM
Results filed as inconclusive are left out. Calls of active or inactive are those of the source. Calls come from the whole dose curve; as a rule, active = well fitted inhibition curve with a large enough effect; inconclusive = small, poorly fitted or top-dose-only effect; inactive = flat fitted curve, though single readings scatter.
Response enum: active, inactive

Challenge: Hi, do you know how COc1cccc(CCc2ccccc2OCC(CN(C)C)OC(=O)CCC(=O)O)c1 (stereo unspecified) came out in this test?
Response given: active

Challenge: Hi, do you know how `CCOC(=O)n1ccn(C)c1=S` came out in this test?
Response given: inactive

Challenge: Hi, do you know how `CC(C)(C)CC(C)(C)c1ccc(OCCOCC[N+](C)(C)Cc2ccccc2)cc1` came out in this test?
Response given: active

Challenge: Hi, do you know how `NC(CO)(CO)CO` came out in this test?
Response given: inactive

Challenge: Hi, do you know how `COc1cc(OC)cc(OC)c1` came out in this test?
Response given: inactive

Challenge: Hi, do you know how COc1cc2c(cc1OC)C(C(C(=O)N(CCc1ccc(OC)c(OC)c1OC)CCc1ccc(OC)c(OC)c1OC)c1ccccc1)=NCC2 (stereo unspecified) came out in this test?
Response given: active

###

# Test system: ATS95
# experiment: qHTS profiling for inhibitors of Plasmodium falciparum proliferation (AID 504749); further: nearly all actives have a fitted effect of over 60% in size
# condition: P. falciparum in erythrocytes, SYBR Green DNA, 72 h; series mostly up to 28.7 µM
Results filed as inconclusive are left out. Activity calls are given as the source filed them. Calls come from the whole dose curve; as a rule, active = well fitted inhibition curve with a large enough effect; inconclusive = small, poorly fitted or top-dose-only effect; inactive = flat fitted curve, though single readings scatter.
Response enum: active, inactive

compound	class
CN1CCC(=C2c3ccccc3Sc3ccccc32)CC1	active
CC(O)(P(=O)(O)O)P(=O)(O)O	inactive
COc1ccc(CN2CCN(C(c3ccc(F)cc3)c3ccc(F)cc3)CC2)c(OC)c1OC	active
CC(=O)Oc1ccc(C(=C2CCCCC2)c2ccc(OC(C)=O)cc2)cc1	inactive
CN1C(CCl)Nc2cc(Cl)c(S(N)(=O)=O)cc2S1(=O)=O (configuration not stated)	inactive

Challenge: Hi, do you know how `CC(C)(C(=O)c1cccnc1)c1cccnc1` came out in this test?
Response given: inactive

###

# Test system: CP262
# experiment: qHTS profiling for inhibitors of Plasmodium falciparum proliferation (AID 504749); further: nearly all actives have a fitted effect of over 60% in size; further: potency means the concentration at half of the fitted maximal effect
# condition: P. falciparum in erythrocytes, SYBR Green DNA, 72 h; series mostly up to 28.7 µM
Inconclusive results are not listed. Activity calls are given as the source filed them. Calls come from the whole dose curve; as a rule, active = well fitted inhibition curve with a large enough effect; inconclusive = small, poorly fitted or top-dose-only effect; inactive = flat fitted curve, though single readings scatter.
valueType: Potency

compound	Potency
COc1cc2c(cc1OC)C(C(C(=O)N(CCc1ccc(OC)c(OC)c1OC)CCc1ccc(OC)c(OC)c1OC)c1ccccc1)=NCC2 (stereo unspecified)	9.53 µM (active)
NCCc1ccn[nH]1	inactive
Cc1ncc(CSSCc2cnc(C)c(O)c2CO)c(CO)c1O	inactive
CCCCCC=CCC=CCCCCCCCC(=O)OCC	inactive
CCOc1ccc(NC(=O)CC(C)O)cc1 (stereo unspecified)	inactive

Okay, now this compound:
For `c1ccc(CNCCNCc2ccccc2)cc1` the compound record lists Potency as inactive

###

# System: CP266
# experiment: qHTS profiling for inhibitors of Plasmodium falciparum proliferation (AID 504749); further: nearly all actives have a fitted effect of over 60% in size
# condition: P. falciparum in erythrocytes, SYBR Green DNA, 72 h; series mostly up to 28.7 µM
# Description: NIH National Institute of Allergy and Infectious Diseases [NIAID] NIH Chemical Genomics Center [NCGC] […] Because mature erythrocytes lack DNA, only Plasmodium-derived DNA is detected. NCGC Assay Protocol Summary: The SYBR Green viability assay was adapted from a method described previously (Plouffe et al., 2008). […] The following morning, fluorescence intensity at 485(14) nm excitation and 535(25) nm emission wavelengths was measured on an EnVision (Perkin Elmer) plate reader. […]
Records with an inconclusive call do not appear. Activity calls are given as the source filed them. Calls come from the whole dose curve; as a rule, active = well fitted inhibition curve with a large enough effect; inconclusive = small, poorly fitted or top-dose-only effect; inactive = flat fitted curve, though single readings scatter. Numbered stars: 1 amine (or outer) side, 2 acyl side, 3 side chain; on linkers, the order of the positions; unused ones are H or OH. Bridge positions count the residues as written; N and C are the ends. Square brackets hold non-standard residues; d marks the D form. Peptide text beside a SMILES is read from it. I, II: the chains in the order shown. Actinocin(9to1) = Cc1c2oc3c(C)ccc(C(=O)[*:1])c3nc-2c(C(=O)[*:2])c(N)c1=O; NMeV = CN[C@H](C(=O)O)C(C)C; Sar = CNCC(=O)O
Response enum: active, inactive

compound	class
CCOC(=O)COc1ccc2c(C)c(CCN(CC)CC)c(=O)oc2c1Cl	inactive
CC(C)(C(=O)c1cccnc1)c1cccnc1	inactive
O=C1CCC(c2ccc(-n3ccnc3)cc2)=NN1	inactive

Challenge: Hi, do you know how `O=C(O)CCCCC(=O)O` came out in this test?
Response given: inactive

Challenge: Hi, do you know how CCOC(=O)OC(C)OC1=C(C(=O)Nc2ccccn2)N(C)S(=O)(=O)c2ccccc21 (centres undefined) came out in this test?
Response given: inactive

Challenge: Hi, do you know how Cc1c2oc3c(C)ccc(C(=O)N[C@@H]4C(=O)N[C@H](C(C)C)C(=O)N5CCC[C@H]5C(=O)N(C)CC(=O)N(C)[C@@H](C(C)C)C(=O)O[C@@H]4C)c3nc-2c(C(=O)N[C@@H]2C(=O)N[C@H](C(C)C)C(=O)N3CCC[C@H]3C(=O)N(C)CC(=O)N(C)[C@@H](C(C)C)C(=O)O[C@@H]2C)c(N)c1=O (I: T[dV]P[Sar][NMeV] / II: T[dV]P[Sar][NMeV]; ester I:1-I:C, II:1-II:C; linker I:N-II:N via Actinocin(9to1)) came out in this test?
Response given: active

Challenge: Hi, do you know how `CC(=O)N/N=C/c1ccc([N+](=O)[O-])o1` came out in this test?
Response given: inactive

Challenge: Hi, do you know how `NC(=NCCCCCCN=C(N)/N=C(\N)Nc1ccc(Cl)cc1)/N=C(\N)Nc1ccc(Cl)cc1` came out in this test?
Response given: active

###

# Test system: MKL-2
# experiment: qHTS assay to identify novel small-molecules to repurpose for Merkel cell carcinoma treatment (AID 1296009); further: nearly all actives have a fitted effect of over 60% in size
# condition: MCC and control cell lines, CellTiter-Glo viability, 72 h; series mostly up to 46 µM
Records with an inconclusive call do not appear. The source made the active and inactive calls. Calls follow the shape of the dose curve; as a rule, active = well fitted inhibition curve with a large enough effect; inconclusive = small, poorly fitted or top-dose-only effect; inactive = flat fitted curve, though single readings scatter.
Response enum: active, inactive

compoundStructureString	class
O=C(Nc1ccc(Oc2ccc(Cl)cc2)c(Cl)c1)c1cc(I)cc(I)c1O	inactive
CCCCCCCCCCCCCCCC[N+](C)(C)CCN(Cc1ccc(OC)cc1)c1ncccn1	active
CCCCCCCCCCCCCCCC[N+](C)(C)CC	active
Nc1nc2ncc(CNc3ccc(C(=O)N[C@@H](CCC(=O)O)C(=O)O)cc3)nc2c(=O)[nH]1	inactive

Continue with the compound presented below.
Challenge: Hi, do you know how `CCCN1CCCC[C@H]1C(=O)Nc1c(C)cccc1C` came out in this test?
Response given: inactive

###

# Tested on: CP260
# experiment: qHTS profiling for inhibitors of Plasmodium falciparum proliferation (AID 504749); further: nearly all actives have a fitted effect of over 60% in size
# condition: P. falciparum in erythrocytes, SYBR Green DNA, 72 h; series mostly up to 28.7 µM
Inconclusive results are not listed. Active and inactive are the calls of the source. The call rests on the fitted dose curve; in most records, active means well fitted inhibition curve with a large enough effect; inconclusive means small, poorly fitted or top-dose-only effect; inactive means flat fitted curve, though single readings scatter.
Response enum: active, inactive

Would you please look over these solved cases?
compound	class
CCn1cc(C(=O)O)c(=O)c2cnc(N3CCCC3)nc21	inactive
Cc1c(C(C)C)c(=O)n(-c2ccccc2)n1C	inactive
CN(C)C(=S)SC(=S)N(C)C	active
Nc1ccc(/C=C/c2ccc(N)cc2S(=O)(=O)O)c(S(=O)(=O)O)c1	inactive
O=C(CCN1CCC(c2ccccc2)C1)c1ccc2c(c1)OCCO2 (stereo unspecified)	inactive

Continue with the compound presented below.
Challenge: Hi, do you know how `CC(C)COC(=O)OCN1C(=O)CN(CCN2CC(=O)N(COC(=O)OCC(C)C)C(=O)C2)CC1=O` came out in this test?
Response given: inactive

###

# experiment: qHTS of pediatric cancer cell lines to identify multiple opportunities for drug repurposing: Primary screen for LAN-5 cells (AID 1347100)
# condition: LAN-5 neuroblastoma viability, CellTiter-Glo luminescence, 48 h; series mostly up to 46 µM
# Protocol: Drug repurposing or repositioning has been offered as a strategy for drug development in oncology programs. […] [1] Shen, M et al. Quantitative high-throughput phenotypic screening of pediatric cancer cell lines identifies multiple opportunities for drug repurposing. […] Cells were assayed in growth media at a density of 500-1,000 cells/well. […] After a 15 min incubation at room temperature, samples were analyzed for luminescence intensity using a ViewLux High-throughput CCD imager equipped with clear filters.
Results filed as inconclusive are left out. The source made the active and inactive calls. The call rests on the fitted dose curve; in most records, active means well fitted cell-killing curve with a large enough effect; inconclusive means small, poorly fitted or top-dose-only effect; inactive means no such curve, though single readings can be large or run the other way. Numbered stars: 1 amine (or outer) side, 2 acyl side, 3 side chain; on linkers, the order of the positions; unused ones are H or OH. Bridge positions count the residues as written; N and C are the ends. Square brackets hold non-standard residues; d marks the D form. Peptide text beside a SMILES is read from it. I, II: the chains in the order shown. Actinocin(9to1) = Cc1c2oc3c(C)ccc(C(=O)[*:1])c3nc-2c(C(=O)[*:2])c(N)c1=O; NMeV = CN[C@H](C(=O)O)C(C)C; Sar = CNCC(=O)O
Response enum: T for active, F for inactive

Would you please look over these solved cases?
compound	class
C[C@]12CCC(=O)C=C1[C@@H]1C[C@@H]1[C@H]1[C@@H]3[C@@H]4C[C@@H]4[C@@]4(CCC(=O)O4)[C@@]3(C)CC[C@@H]12	F
Cc1c2oc3c(C)ccc(C(=O)N[C@@H]4C(=O)N[C@H](C(C)C)C(=O)N5CCC[C@H]5C(=O)N(C)CC(=O)N(C)[C@@H](C(C)C)C(=O)O[C@@H]4C)c3nc-2c(C(=O)N[C@@H]2C(=O)N[C@H](C(C)C)C(=O)N3CCC[C@H]3C(=O)N(C)CC(=O)N(C)[C@@H](C(C)C)C(=O)O[C@@H]2C)c(N)c1=O (I: T[dV]P[Sar][NMeV] / II: T[dV]P[Sar][NMeV]; ester I:1-I:C, II:1-II:C; linker I:N-II:N via Actinocin(9to1))	F
Cc1nc2n(c(=O)c1CCN1CCC(c3noc4cc(F)ccc34)CC1)CCC[C@H]2O	F
C[C@]12CC[C@H]3[C@@H](CCC4=CC(=O)CC[C@@]43C)[C@@H]1CC[C@@H]2C(=O)CO	F
CCCC(=O)Nc1ccc(OCC(O)CNC(C)C)c(C(C)=O)c1 (configuration not stated)	F
CC(=O)OCC(=O)[C@@]1(OC(C)=O)[C@@H](C)C[C@H]2[C@@H]3C[C@H](F)C4=CC(=O)C=C[C@]4(C)[C@@]3(F)[C@@H](O)C[C@@]21C	F

Challenge: Hi, do you know how `Oc1ccc(O)cc1` came out in this test?
Response given: T

Challenge: Hi, do you know how `O=C(N/N=C/c1ccccc1O)c1ccncc1` came out in this test?
Response given: T

Challenge: Hi, do you know how `O=C(COc1ccc(Cl)cc1)N1CCN(Cc2ccc3c(c2)OCO3)CC1` came out in this test?
Response given: F

Challenge: Hi, do you know how `C[C@@H]1C[C@H]2[C@@H]3CCC4=CC(=O)C=C[C@]4(C)[C@@]3(F)[C@@H](O)C[C@]2(C)[C@H]1C(=O)CO` came out in this test?
Response given: F

Challenge: Hi, do you know how `CC(=O)OCC(=O)[C@@]12N=C(C)O[C@@H]1C[C@H]1[C@@H]3CCC4=CC(=O)C=C[C@]4(C)[C@H]3[C@@H](O)C[C@@]12C` came out in this test?
Response given: F

Challenge: Hi, do you know how CCC(C(=O)OCCN(CC)CC)c1ccccc1 (configuration not stated) came out in this test?
Response given: F

Cited source for all entries: PubChem BioAssay (NCATS)
